Where do the numbers come from? From patent US20240209076A1.

# MEASUREMENT_TARGET: recombinant human IL-6 (human, UniProt P05231 30-212)
# Sequence (P05231 30-212 limits assumed): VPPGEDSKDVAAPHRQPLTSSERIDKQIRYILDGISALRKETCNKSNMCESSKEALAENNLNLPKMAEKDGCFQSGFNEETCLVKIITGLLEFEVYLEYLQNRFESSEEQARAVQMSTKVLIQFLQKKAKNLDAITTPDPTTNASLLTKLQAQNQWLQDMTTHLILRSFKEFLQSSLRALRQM
# METHOD_NOTES: SPR, IL-6 on CM5 chip, Fab lysate, 25 C
Some binders, each annotated with its measured koff.

BINDER	koff (s⁻¹)
anti-IL-6 Fab, light chain M88A (Fab, V domains shown, see m39) VH: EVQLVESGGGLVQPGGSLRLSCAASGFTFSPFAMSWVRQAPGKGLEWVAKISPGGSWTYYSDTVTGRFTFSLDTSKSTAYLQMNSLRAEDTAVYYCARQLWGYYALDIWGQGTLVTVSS VL: DIQLTQSPSSLSASVGDRVTITCSASISVSYMYWYQQKPGKAPKLLIYDMSNLASGVPSRFSGSGSGTDFTLTISSLQPEDFATYYCAQWSGYPYTFGQGTKVEIK	0.00479
anti-IL-6 Fab, light chain L46V (Fab, V domains shown, see m39) VH: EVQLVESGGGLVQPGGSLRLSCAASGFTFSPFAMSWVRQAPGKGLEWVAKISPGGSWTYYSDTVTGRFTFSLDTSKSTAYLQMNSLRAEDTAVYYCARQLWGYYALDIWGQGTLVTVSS VL: DIQLTQSPSSLSASVGDRVTITCSASISVSYMYWYQQKPGKAPKLVIYDMSNLASGVPSRFSGSGSGTDFTLTISSLQPEDFATYYCMQWSGYPYTFGQGTKVEIK	0.00503
anti-IL-6 Fab, light chain A54Y (Fab, V domains shown, see m39) VH: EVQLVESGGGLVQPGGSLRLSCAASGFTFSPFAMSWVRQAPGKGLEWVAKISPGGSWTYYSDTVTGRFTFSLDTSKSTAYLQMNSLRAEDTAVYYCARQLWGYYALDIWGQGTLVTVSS VL: DIQLTQSPSSLSASVGDRVTITCSASISVSYMYWYQQKPGKAPKLLIYDMSNLYSGVPSRFSGSGSGTDFTLTISSLQPEDFATYYCMQWSGYPYTFGQGTKVEIK	0.00525
anti-IL-6 Fab, light chain L53H (Fab, V domains shown, see m39) VH: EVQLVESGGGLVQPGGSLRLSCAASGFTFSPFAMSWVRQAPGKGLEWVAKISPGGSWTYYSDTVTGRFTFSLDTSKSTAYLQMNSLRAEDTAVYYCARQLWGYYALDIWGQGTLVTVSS VL: DIQLTQSPSSLSASVGDRVTITCSASISVSYMYWYQQKPGKAPKLLIYDMSNHASGVPSRFSGSGSGTDFTLTISSLQPEDFATYYCMQWSGYPYTFGQGTKVEIK	0.00498
anti-IL-6 Fab, light chain S55L (Fab, V domains shown, see m39) VH: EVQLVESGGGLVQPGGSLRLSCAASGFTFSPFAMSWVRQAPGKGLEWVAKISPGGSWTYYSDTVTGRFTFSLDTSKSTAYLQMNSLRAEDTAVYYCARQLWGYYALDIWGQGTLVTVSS VL: DIQLTQSPSSLSASVGDRVTITCSASISVSYMYWYQQKPGKAPKLLIYDMSNLALGVPSRFSGSGSGTDFTLTISSLQPEDFATYYCMQWSGYPYTFGQGTKVEIK	0.00507
